- Tested on: Fusarium oxysporum
- ASSAY_PROTOCOL: Antifungal activity against Fusarium oxysporum 1 at 60 ug/disc after 24 hrs by disc diffusion method
- Assay type: functional
- TEST_CONDITIONS: read-out: IZ
MEASURED_ATTRIBUTE: zone of inhibition at 60 µg/disc (mm)

>  <COMPOUND>
CC(=O)N(C(C)=O)c1nc2c(c(-c3ccc(C)cc3)c1C#N)C(=O)CCC2

>  <NUMERIC_RESULT>
2

$$$$
>  <COMPOUND>
C[C@@H]1C[C@@H]([C@H](O)CC2CC(=O)NC(=O)C2)C(=O)[C@@H](C)C1 [CYCLOHEXIMIDE]

>  <NUMERIC_RESULT>
5

$$$$
>  <COMPOUND>
N#Cc1c(N)nc2c(c1-c1cccc(NC(=O)Nc3cccc(-c4c(C#N)c(N)nc5c4C(=O)CCC5)c3)c1)C(=O)CCC2

>  <NUMERIC_RESULT>
2

$$$$
>  <COMPOUND>
N#Cc1c(N)nc2c(c1-c1ccc([N+](=O)[O-])cc1)C(=O)CCC2

>  <NUMERIC_RESULT>
2

$$$$

* * *

- System: Mucor
- ASSAY_PROTOCOL: Antifungal activity against Mucor at after 24 hrs by disc diffusion method
- Format: functional
Reported MIC by item:
MEASURED_ATTRIBUTE: MIC (µg/disc)

>  <INPUT_SMILES>
N#Cc1c(N)nc2c(c1-c1ccc(Cl)cc1)C(=O)CCC2

>  <UNIT_ANNOTATION>
µg/disc

>  <NUMERIC_RESULT>
60

$$$$
>  <INPUT_SMILES>
CC(=O)Nc1nc2c(c(-c3cccc(N4C(=O)C=CC4=O)c3)c1C#N)C(=O)CCC2

>  <UNIT_ANNOTATION>
µg/disc

>  <NUMERIC_RESULT>
40

$$$$
>  <INPUT_SMILES>
N#Cc1c(N)nc2c(c1-c1ccccc1Cl)C(=O)CCC2

>  <UNIT_ANNOTATION>
µg/disc

>  <NUMERIC_RESULT>
60

$$$$
>  <INPUT_SMILES>
N#Cc1c(N)nc2c(c1-c1cccc([N+](=O)[O-])c1)C(=O)CCC2

>  <UNIT_ANNOTATION>
µg/disc

>  <NUMERIC_RESULT>
60

$$$$
>  <INPUT_SMILES>
N#Cc1c(N)nc2c(c1-c1cccc(N)c1)C(=O)CCC2

>  <UNIT_ANNOTATION>
µg/disc

>  <NUMERIC_RESULT>
40

$$$$
>  <INPUT_SMILES>
Cc1ccc(-c2c(C#N)c(N)nc3c2C(=O)CCC3)cc1

>  <UNIT_ANNOTATION>
µg/disc

>  <NUMERIC_RESULT>
60

$$$$

* * *

- Tested on: Candida albicans
- ASSAY_PROTOCOL: Antifungal activity against Candida albicans 2 at 60 ug/disc after 24 hrs by disc diffusion method
- Format: functional
- TEST_CONDITIONS: read-out: IZ
MEASURED_ATTRIBUTE: zone of inhibition at 60 µg/disc (mm)

>  <INPUT_SMILES>
COc1ccc(NC(=O)Nc2cccc(-c3c(C#N)c(N)nc4c3C(=O)CCC4)c2)cc1

>  <UNIT_ANNOTATION>
mm

>  <NUMERIC_RESULT>
3

$$$$
>  <INPUT_SMILES>
N#Cc1c(N)nc2c(c1-c1ccc([N+](=O)[O-])cc1)C(=O)CCC2

>  <UNIT_ANNOTATION>
mm

>  <NUMERIC_RESULT>
3

$$$$
>  <INPUT_SMILES>
N#Cc1c(N)nc2c(c1-c1cccc(N3C(=O)C=CC3=O)c1)C(=O)CCC2

>  <UNIT_ANNOTATION>
mm

>  <NUMERIC_RESULT>
5

$$$$
>  <INPUT_SMILES>
CC(=O)Nc1nc2c(c(-c3cccc(N4C(=O)C=CC4=O)c3)c1C#N)C(=O)CCC2

>  <UNIT_ANNOTATION>
mm

>  <NUMERIC_RESULT>
2

$$$$
>  <INPUT_SMILES>
CC(=O)N(C(C)=O)c1nc2c(c(-c3ccc(C)cc3)c1C#N)C(=O)CCC2

>  <UNIT_ANNOTATION>
mm

>  <NUMERIC_RESULT>
4

$$$$

Data provenance is ChEMBL document CHEMBL1137451.
